Would you kindly list Kd for each of these binders?
- System: GST-NTF2L (GST-tagged NTF2-like domain of G3BP1) (human)
- Sequence (chain, as listed by the source): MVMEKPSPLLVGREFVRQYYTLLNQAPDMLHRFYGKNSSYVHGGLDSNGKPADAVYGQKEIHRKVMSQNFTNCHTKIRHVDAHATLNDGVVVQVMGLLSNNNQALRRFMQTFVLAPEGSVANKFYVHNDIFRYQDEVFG
- Experiment summary: SPR
Field format: number, assumed nM, no unit text.

IN: Data request, read-out Kd, for LTFGDFDEHEVDALASGITFGDFDD [SFV nsP3 (449–473) peptide]
OUT: 2500

IN: Same question, MALHSPQYIFGDFSPDEFNQFFVTP [USP10 (1–25) peptide] this time
OUT: 110

Origin of the recorded values: paper PMC11044841
